Target Or Test System: Oxysterols receptor LXR-alpha (Homo sapiens, UniProt Q13133)
Sequence (Q13133 whole entry, the tested form may be a part): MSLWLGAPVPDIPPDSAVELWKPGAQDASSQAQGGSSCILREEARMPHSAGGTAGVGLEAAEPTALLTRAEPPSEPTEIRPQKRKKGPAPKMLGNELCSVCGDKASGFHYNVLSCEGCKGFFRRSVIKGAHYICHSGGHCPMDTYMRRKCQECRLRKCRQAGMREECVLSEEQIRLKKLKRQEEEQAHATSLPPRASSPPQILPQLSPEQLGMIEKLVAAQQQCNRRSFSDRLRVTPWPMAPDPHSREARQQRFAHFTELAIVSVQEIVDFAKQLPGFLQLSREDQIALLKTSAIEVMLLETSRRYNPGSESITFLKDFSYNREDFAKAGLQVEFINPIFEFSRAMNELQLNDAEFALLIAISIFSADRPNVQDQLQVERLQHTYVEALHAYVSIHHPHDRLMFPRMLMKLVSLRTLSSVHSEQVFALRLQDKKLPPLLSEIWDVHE
Assay Protocol: Agonist activity at human LXRalpha by Gal4 assay
Measured Attribute: EC50 (µM)
Report the figure in µM without appending any unit label.

Lookup: Provide one value: measured EC50 of `O=C(O)Cc1cccc(OCCCN(Cc2cccc(C(F)(F)F)c2Cl)CC(c2ccccc2)c2ccccc2)c1`
Found: 1.13

* * *

Assay Protocol: Half life in rat liver microsomes
Assay type: ADME
For each entry below, report its half-life value.
Report the figure in min without appending any unit label.

Lookup: Provide one value: measured half-life of `CC(C)[C@@H]1CN(c2ccc(F)c(S(C)(=O)=O)c2)CCN1c1ncc(CO)c(C(F)(F)F)n1`
Found: 36

Lookup: Provide one value: measured half-life of `CC(C)[C@H]1CN(c2ccc(CO)c(S(C)(=O)=O)c2)CCN1c1ncc(CO)c(C(F)(F)F)n1`
Found: 25

Lookup: Provide one value: measured half-life of `CC(C)[C@@H]1CN(c2ccc(F)c(S(C)(=O)=O)c2)CCN1c1ncc(Cl)c(C(F)(F)F)n1`
Found: 42

Lookup: Provide one value: measured half-life of `CC(C)[C@@H]1CN(c2ccc(CO)c(S(C)(=O)=O)c2)CCN1c1ncc(CO)c(C(F)(F)F)n1`
Found: 70

Lookup: Provide one value: measured half-life of `CC(C)[C@@H]1CN(c2cccc(S(C)(=O)=O)c2)CCN1c1nccc(C(F)(F)F)n1`
Found: 11

Lookup: Provide one value: measured half-life of `CC(C)[C@@H]1CN(c2ccc(F)c(S(C)(=O)=O)c2)CCN1c1ncc(C(C)(C)O)c(C(F)(F)F)n1`
Found: 51

Lookup: Provide one value: measured half-life of `CC(C)[C@@H]1CN(c2ccc(F)c(S(C)(=O)=O)c2)CCN1c1nccc(C(F)(F)F)n1`
Found: 5
